Measured values drawn from patent US20080207693A1 for this set.

# measured-target: human KSP motor domain (KSP(367H)) (Homo sapiens)
# Sequence (P52732 18-359 limits assumed): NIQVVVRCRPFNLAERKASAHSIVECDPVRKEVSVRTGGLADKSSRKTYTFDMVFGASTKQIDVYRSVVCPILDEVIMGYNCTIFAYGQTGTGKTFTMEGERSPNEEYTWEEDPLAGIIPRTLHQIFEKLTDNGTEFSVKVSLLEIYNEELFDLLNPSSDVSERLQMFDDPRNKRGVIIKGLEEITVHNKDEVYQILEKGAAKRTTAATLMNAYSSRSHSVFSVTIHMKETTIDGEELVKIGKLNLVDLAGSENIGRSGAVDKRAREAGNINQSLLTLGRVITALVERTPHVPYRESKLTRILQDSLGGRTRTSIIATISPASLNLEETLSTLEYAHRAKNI
property-name: IC50

line_notation=CN(C(=O)N1CC(c2cc(F)ccc2F)=C[C@@]1(CO)c1ccccc1)[C@H]1CCN(CCC[Si](C)(C)C)C[C@H]1F recorded_result="≤ 50 µM"
